Biological target: N-type calcium channel (α1B (Cav2.2), β3 and α2δ subunits) in stable HEK cell line (Homo sapiens (Human))
Sequence (Q00975 whole entry): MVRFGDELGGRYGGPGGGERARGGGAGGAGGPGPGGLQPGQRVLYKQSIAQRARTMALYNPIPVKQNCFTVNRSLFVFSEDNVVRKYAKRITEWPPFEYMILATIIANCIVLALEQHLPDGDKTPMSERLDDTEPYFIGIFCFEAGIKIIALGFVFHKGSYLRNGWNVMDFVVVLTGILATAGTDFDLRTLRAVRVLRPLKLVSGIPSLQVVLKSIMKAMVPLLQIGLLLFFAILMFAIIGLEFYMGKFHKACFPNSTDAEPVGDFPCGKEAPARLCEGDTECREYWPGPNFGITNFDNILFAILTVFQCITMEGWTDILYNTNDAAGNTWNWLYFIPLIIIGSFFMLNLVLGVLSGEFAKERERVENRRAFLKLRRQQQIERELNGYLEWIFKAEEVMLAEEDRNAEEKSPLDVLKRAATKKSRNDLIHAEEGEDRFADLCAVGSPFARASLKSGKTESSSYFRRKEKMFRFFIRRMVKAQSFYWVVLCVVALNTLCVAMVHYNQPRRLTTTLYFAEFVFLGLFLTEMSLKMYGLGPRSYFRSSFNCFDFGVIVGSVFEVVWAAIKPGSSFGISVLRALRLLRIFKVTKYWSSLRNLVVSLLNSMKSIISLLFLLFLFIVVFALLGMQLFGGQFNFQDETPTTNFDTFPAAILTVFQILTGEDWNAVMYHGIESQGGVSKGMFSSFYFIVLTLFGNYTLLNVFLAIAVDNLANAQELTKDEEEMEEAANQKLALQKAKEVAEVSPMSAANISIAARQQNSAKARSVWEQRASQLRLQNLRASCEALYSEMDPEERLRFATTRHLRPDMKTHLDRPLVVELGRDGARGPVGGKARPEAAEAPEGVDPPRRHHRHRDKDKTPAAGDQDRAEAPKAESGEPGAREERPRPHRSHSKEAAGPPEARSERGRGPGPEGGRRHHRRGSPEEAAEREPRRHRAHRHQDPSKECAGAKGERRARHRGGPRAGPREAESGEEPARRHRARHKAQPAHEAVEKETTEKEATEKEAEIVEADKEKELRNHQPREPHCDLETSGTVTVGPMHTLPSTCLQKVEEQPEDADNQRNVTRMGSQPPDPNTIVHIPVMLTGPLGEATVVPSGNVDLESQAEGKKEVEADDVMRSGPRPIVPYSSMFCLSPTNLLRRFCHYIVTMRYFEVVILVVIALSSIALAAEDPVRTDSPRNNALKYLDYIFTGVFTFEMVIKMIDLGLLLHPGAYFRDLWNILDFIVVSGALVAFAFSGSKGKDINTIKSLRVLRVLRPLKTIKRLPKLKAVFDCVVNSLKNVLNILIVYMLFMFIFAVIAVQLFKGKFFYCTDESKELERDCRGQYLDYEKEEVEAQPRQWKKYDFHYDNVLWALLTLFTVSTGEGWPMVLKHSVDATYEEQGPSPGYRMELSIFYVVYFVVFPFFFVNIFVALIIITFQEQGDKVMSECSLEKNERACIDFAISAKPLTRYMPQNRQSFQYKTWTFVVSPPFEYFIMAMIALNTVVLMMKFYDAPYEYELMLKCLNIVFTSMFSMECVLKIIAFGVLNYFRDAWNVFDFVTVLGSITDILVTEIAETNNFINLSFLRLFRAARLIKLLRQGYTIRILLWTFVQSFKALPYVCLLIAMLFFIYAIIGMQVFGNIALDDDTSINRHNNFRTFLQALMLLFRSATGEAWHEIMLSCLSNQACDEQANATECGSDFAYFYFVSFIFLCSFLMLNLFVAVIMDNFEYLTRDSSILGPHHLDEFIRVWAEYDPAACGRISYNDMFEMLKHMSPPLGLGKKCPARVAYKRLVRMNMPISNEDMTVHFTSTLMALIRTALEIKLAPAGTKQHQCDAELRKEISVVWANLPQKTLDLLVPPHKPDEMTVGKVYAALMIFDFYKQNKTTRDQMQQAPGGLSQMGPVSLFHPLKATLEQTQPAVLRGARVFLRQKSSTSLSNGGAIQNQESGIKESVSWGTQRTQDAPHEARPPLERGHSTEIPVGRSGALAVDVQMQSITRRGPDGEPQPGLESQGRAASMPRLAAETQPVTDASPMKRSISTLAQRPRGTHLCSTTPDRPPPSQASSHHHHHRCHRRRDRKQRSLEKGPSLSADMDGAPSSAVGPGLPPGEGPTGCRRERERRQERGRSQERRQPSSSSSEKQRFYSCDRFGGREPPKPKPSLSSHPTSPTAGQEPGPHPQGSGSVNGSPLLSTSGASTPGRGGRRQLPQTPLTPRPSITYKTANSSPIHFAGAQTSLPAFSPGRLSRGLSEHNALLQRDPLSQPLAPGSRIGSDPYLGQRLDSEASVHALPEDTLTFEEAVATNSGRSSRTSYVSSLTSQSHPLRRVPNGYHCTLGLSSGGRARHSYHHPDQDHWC
Sequence (P54284 whole entry partner): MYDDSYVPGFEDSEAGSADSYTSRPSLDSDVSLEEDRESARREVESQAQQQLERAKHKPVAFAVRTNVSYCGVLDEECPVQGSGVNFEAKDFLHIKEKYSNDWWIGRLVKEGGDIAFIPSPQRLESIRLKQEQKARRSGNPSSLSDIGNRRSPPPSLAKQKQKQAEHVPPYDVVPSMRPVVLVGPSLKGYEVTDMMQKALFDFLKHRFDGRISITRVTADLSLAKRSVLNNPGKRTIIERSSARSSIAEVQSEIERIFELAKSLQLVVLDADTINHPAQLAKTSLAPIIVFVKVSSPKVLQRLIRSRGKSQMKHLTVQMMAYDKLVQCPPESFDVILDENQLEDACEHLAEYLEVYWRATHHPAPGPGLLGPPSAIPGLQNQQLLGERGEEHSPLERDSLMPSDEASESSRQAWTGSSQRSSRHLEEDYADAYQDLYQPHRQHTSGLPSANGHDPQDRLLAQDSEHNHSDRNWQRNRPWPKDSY
Sequence (P54289 25-1103 partner): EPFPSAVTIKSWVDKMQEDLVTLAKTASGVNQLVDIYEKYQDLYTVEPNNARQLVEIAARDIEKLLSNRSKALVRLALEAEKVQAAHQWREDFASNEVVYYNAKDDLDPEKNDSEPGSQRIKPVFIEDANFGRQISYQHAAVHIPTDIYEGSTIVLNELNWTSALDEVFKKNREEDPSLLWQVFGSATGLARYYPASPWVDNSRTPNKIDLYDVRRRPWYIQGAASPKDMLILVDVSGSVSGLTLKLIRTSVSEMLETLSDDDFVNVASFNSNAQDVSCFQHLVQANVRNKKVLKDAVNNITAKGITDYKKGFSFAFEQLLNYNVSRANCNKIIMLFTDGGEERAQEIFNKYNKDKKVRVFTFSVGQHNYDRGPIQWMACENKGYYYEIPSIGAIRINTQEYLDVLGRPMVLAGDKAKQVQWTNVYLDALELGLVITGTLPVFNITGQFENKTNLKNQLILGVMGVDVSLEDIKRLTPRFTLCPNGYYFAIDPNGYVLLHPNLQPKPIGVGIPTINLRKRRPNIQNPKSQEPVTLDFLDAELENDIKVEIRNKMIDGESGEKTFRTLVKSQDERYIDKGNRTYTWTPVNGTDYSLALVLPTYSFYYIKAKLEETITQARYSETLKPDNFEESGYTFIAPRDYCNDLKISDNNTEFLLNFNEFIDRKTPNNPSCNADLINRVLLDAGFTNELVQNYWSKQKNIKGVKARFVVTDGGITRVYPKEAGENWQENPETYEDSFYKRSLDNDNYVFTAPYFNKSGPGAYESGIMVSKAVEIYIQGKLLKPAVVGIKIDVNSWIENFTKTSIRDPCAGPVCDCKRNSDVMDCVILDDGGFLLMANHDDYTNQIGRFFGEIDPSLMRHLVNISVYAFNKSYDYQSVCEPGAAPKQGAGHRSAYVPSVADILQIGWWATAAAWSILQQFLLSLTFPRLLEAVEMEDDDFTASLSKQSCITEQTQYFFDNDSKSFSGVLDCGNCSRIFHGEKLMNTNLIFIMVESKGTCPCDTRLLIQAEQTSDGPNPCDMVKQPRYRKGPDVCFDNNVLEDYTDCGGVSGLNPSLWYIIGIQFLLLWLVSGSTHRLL
Assay: Functional assay (FDSS calcium mobilization): antagonism of N-type calcium channel
Conditions: KCl (50 mM) depolarization, six-point concentration-response
Structures can show the parent of a compound that is named as a salt.
Each entry below lists one item and its recorded IC50 value.
The reply should be a number in nM, with the unit left off.

> print(dat)
                                   compound  recorded.value
1  COc1ccccc1-n1nc(OC2CC(C)(C)C(O)C(C)(C)C2)cc1-c1ccc(Cl)cc1 (centres unmarked) [Compound 42]              39
2  COc1ccc(-c2cc(OC3CC(C)(C)OC(C)(C)C3)nn2-c2ccccc2OC)cc1 [Compound 31]             9.4
3  COc1ccccc1-n1nc(OC2CCN(S(=O)(=O)C(F)(F)F)CC2)cc1-c1ccc(Cl)cc1 [Compound 14]              24
4  COc1ccccc1-n1nc(OC2CCN(CC(F)(F)F)CC2)cc1-c1ccc(Cl)cc1 [Compound 8]              31

Please find the next compound below.
Reported IC50, compound COc1ccccc1-n1nc(O[C@H]2CC[C@@H](N)CC2)cc1-c1ccc(Cl)cc1 [Compound 12, trifluoroacetate] : ____
400
